- Test system: MS2 coat protein
- assay-procedure: apparent KD of MS2 coat protein; designed switch direction (-1 OFF switch, 1 ON switch): -1; higher = weaker reporter binding
- stated-conditions: Eterna round: R95; input ligand: FMN 200 uM
Measured apparent KD of MS2 coat protein accompanies every entry in the list below.
Please provide the amount together with its unit, number first.

Previously resolved entries follow.
[
  {
    "biopolymer-sequence": "CGUGCGUAUGUGAGGAUAUGCUGGUCCUUGGAUCAGCAGAAGGCACAUGAGGAUCACCCAUGUGGUGUCGUACG [salish99_Bmod_Ex4_018] (puzzle: Brourd's mod of Exclusion 4)",
    "apparent KD of MS2 coat protein": "0.0187 µM"
  },
  {
    "biopolymer-sequence": "CGUACUAACACGAAAGUGUUAGUACAAUAAGCUUGUGAAACAUGAGGAUCACCCAUGUCCUCAUAAGCUCGUCUUAA [salish99_TOv2_r3_006] (puzzle: Sensor v3, turn-off variant 2)",
    "apparent KD of MS2 coat protein": "0.0141 µM"
  },
  {
    "biopolymer-sequence": "AAGUAUAGAGGAUAUAGUGAGUACUACAUGAGGAUCACCCAUGUUCUUCAAAGCGUACUUCUAGAAGGCUGUUAAA [EX-5 Malc#17] (puzzle: Exclusion 5)",
    "apparent KD of MS2 coat protein": "0.452 µM"
  },
  {
    "biopolymer-sequence": "GGCCCUAAGGUCAGAUCCACAAGCUUUUUGCUCGUUUUAACAUGAGGAUCACCCAUGUCUAGUGGAUCUGAUCCUCA [Sensor v3, turn-off variant 2 (MOD of Indiso v.3)] (puzzle: Sensor v3, turn-off variant 2)",
    "apparent KD of MS2 coat protein": "0.0169 µM"
  }
]

-- ask Give recorded apparent KD of MS2 coat protein. AGUAACUAUCACGAAAGUGAUAGUUACAAUAGCAAGUGAACAUGAGGAUCACCCAUGUCCUCAUUUGCUCGUCUUAU [Sensor 3 - 20] (puzzle: Sensor v3, turn-off variant 2)
-- reply 0.0161 µM

====

- Tested on: MS2 coat protein
- assay-procedure: apparent KD of MS2 coat protein, switch OFF state (with FMN for OFF switches, without FMN for ON switches); designed switch direction (-1 OFF switch, 1 ON switch): -1; higher = weaker reporter binding
- stated-conditions: FMN input: 0 or 200 uM; Eterna round: R93 (includes R88 designs)
Measured apparent KD of MS2 coat protein accompanies every entry in the list below.
All answers are understood in nM, so give the number only.

[
  {
    "biopolymer-sequence": "AAGGGACAUGAGGAUCACCCAUGUCAGGAUAUGCGAAAAAAAAAAAUAAAAAAAAAAAGCAGAAGGGACACCAA [Mat - Exclusion 1 - Eli mod - D58]",
    "assay-endpoint": "apparent KD of MS2 coat protein",
    "endpoint-result": 102
  },
  {
    "biopolymer-sequence": "CUCAAGUAAGGAUAUUGAAGAAAAGAAGAGAAAGAAAAGAACAAGAAGGUACAUGAGGAUCACCCAUGUAAGAA [EteRNA is fun!]",
    "assay-endpoint": "apparent KD of MS2 coat protein",
    "endpoint-result": 16.6
  }
]

As a next step, examine the sequence that follows.
-- ask Give recorded apparent KD of MS2 coat protein. ACAGUUACAGGAUAUACAAGGGUAACUUCAAAUAAACCUCUACAUGAGGAUCACCCAUGUAGAAGGGUAACUGA [Ex2 Design 200 (maybe): Random 16]
-- reply 21.7

====

- Tested on: K4 kissing-loop RNA reporter;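 note: bound reporter read as fluorescence of individual clusters on recovered sequencing chips by microscopy, with normalized cluster intensities fitted with a binding model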
- assay-procedure: apparent KD of K4 kissing-loop reporter; higher = weaker reporter binding
- stated-conditions: Eterna round: R107; input ligand: none
assay-endpoint: apparent KD of K4 kissing-loop reporter (nM)
All answers are understood in nM, so give the number only.

[
  {
    "biopolymer-sequence": "UAUGUCAUUCUCGACGGAGUGAUGUUCCGACGAGGACCGGUACGGCCGCCACUCGGCAGAAUUGAGUCUGUGAUCCUAGAUCAAU [theeternabot_exclusion_KL_Trp_A_44]",
    "scale-unit": "nM",
    "apparent KD of K4 kissing-loop reporter": 116
  },
  {
    "biopolymer-sequence": "GACUGGUUAACGAGUGAUGUUCGAUGGGAAGGAGCGCGCAGAAGUGCAGGUAGGUCGCCCUAUAACCAGGAAAUGGCUGGAUUAU [3.)]",
    "scale-unit": "nM",
    "apparent KD of K4 kissing-loop reporter": 205
  },
  {
    "biopolymer-sequence": "CACUUACGUAGUGAUGUUACGAUCUCUGAUACCAGACAACUCUAAGUCCCUUGGCAGCAGUCAUUUUGCUUCAAAUUUACUCAAA [JR_ExcTheophyA_Sub013]",
    "scale-unit": "nM",
    "apparent KD of K4 kissing-loop reporter": 706
  },
  {
    "biopolymer-sequence": "AAUAACUUGCAGUGAUGUUGCAAGAAAGCUCAGGAUAUCAGGAAACUGAGAAGGGAGCAUCCUGAGCAAACAUCACAACUUAGGA [[K1]-[K2]-[F1]-[F2]-[F]'-[K]'-[F]''_Design2]",
    "scale-unit": "nM",
    "apparent KD of K4 kissing-loop reporter": 406
  }
]

-- ask Give recorded apparent KD of K4 kissing-loop reporter. GCGCGUCAUGUCAGCGGUGACUUUGUCGAUACCAGCGCCGCAAGGCGCCCUUGGCAGCGACGCGCUGGAGUGAUGUUCCAGCGUG [#2 Exclusion - Theophylline A Attempt #12 (HarryS)]
-- reply 134

====

- System: MS2 coat protein
- assay-procedure: apparent KD of MS2 coat protein; designed switch direction (-1 OFF switch, 1 ON switch): -1; higher = weaker reporter binding
- stated-conditions: input ligand: none
Measured apparent KD of MS2 coat protein accompanies every entry in the list below.
All answers are understood in nM, so give the number only.

[
  {
    "biopolymer-sequence": "GGGCCCGGAGGAUAUACAAUUUUGGGCCGAAAGGCCCGGGUACAUGAGGAUCACCCAUGUAGAAGGCCGGGCCC [-41.7, -39.1 kcal A 24%, 5a,0] (Eterna round: R97, puzzle: Exclusion 2)",
    "apparent KD of MS2 coat protein (nM)": 32.4
  },
  {
    "biopolymer-sequence": "GAAAAGUGAGGAUAUGCUCGAUCCUGGCACCAAGUGAAGUCACUUGAGGAUCACCCAAGUAGAAGGCACAUAAA [Tiederes] (Eterna round: R97, puzzle: Exclusion 2)",
    "apparent KD of MS2 coat protein (nM)": 55.3
  },
  {
    "biopolymer-sequence": "UUCGUGCAGCUUUGCUGUACGCGUACAUGAGGAUCACCCAUGUAGGAUAUGGUAGGCAAAGCUUACUAGAAGGAUAUGGUGAGC [Mat - Exclusion NG 3 - Mod of JL - D79] (Eterna round: R96, puzzle: Exclusion NG 3)",
    "apparent KD of MS2 coat protein (nM)": 21.4
  }
]

-- ask Give recorded apparent KD of MS2 coat protein. UUGCUCGUCUUGCUUCCUAACAUGAGGAUCACCCAUGUCGACGGUGAGACGCAAGAGCCAUCUCGCCGUUGAUCGUC [Eternabot (Original) Solution 4] (Eterna round: R97, puzzle: Sensor, turn-off variant 1)
-- reply 159

-- ask Give recorded apparent KD of MS2 coat protein. AUUAGCGUAGGAUAUUGAUACAUGUACAUGAGGAUCACCCAUGUGAGGUGAGUCUUCGAUUAAGAAGGGCGCAGAA [EX5 #39] (Eterna round: R97, puzzle: Exclusion 5)
-- reply 1210

-- ask Give recorded apparent KD of MS2 coat protein. GUUAACGUAGGAUAUUAGUACAUGAACAUGAGGAUCACCCAUGUGAGGUAGGUCUUAGAAUAAGAAGGGCGAAGAA [EX5 #28] (Eterna round: R97, puzzle: Exclusion 5)
-- reply 124

-- ask Give recorded apparent KD of MS2 coat protein. CUACAUCGAGGAUAUGCAAACGUAAACAUGAGGAUCACCCAUGUGACGUCAUAUUACGUAGUAGAAGGCGAAAAUA [Anlein] (Eterna round: R97, puzzle: Exclusion 5)
-- reply 15.8

-- ask Give recorded apparent KD of MS2 coat protein. AUAUCGUGAGGAUAUCCAAUAUAUGACAUGAGGAUCACCCAUGUUUCCACUCGUACCUCCGGAGAAGGCACAGUUA [Ex5 #72] (Eterna round: R97, puzzle: Exclusion 5)
-- reply 24.5

-- ask Give recorded apparent KD of MS2 coat protein. ACUUCGUCAGGAUAUCGAGUGACCAAGUACACUGGCUUGGCUGAGAAGGGACAUGAGGAUCACCCAUGUGGGAG [Eternabot (L1) Solution 52] (Eterna round: R97, puzzle: Exclusion 4)
-- reply 187

-- ask Give recorded apparent KD of MS2 coat protein. UGAUUGUUUACCAGGUUAUACAUGAGGAUCACCCAUGUAGAUCCUACGUGCGCGUUGUACCGCUCGUCUUAUUCCCA [Sensor-V1 #78] (Eterna round: R97, puzzle: Sensor, turn-off variant 1)
-- reply 18.9
